Hello, the source for this data is patent US20030162796A1, in case you need it.

Test: Plasma levels of BIBX1382 of the treated mice
Type: in vivo, nude mice
Conditions: nude, mouse, plasma, oral; 50 mg/kg, 2 h after last compound administration on day 46; read-out: plasma level, mean
recorded metric: concentration at 2 h (µM)

>>> quantitative_result("CN1CCC(Nc2ncc3ncnc(Nc4ccc(F)c(Cl)c4)c3n2)CC1")
3.17

* * *

Assay: Plasma levels of BIBX1382 of the treated mice
Format: in vivo, nude mice
Conditions: nude, mouse, plasma, oral; 50 mg/kg, 6 h after last compound administration on day 46; read-out: plasma level, mean
recorded metric: concentration at 6 h (nM)

>>> quantitative_result("CN1CCC(Nc2ncc3ncnc(Nc4ccc(F)c(Cl)c4)c3n2)CC1 [BIBX1382]")
2850

* * *

Test: Plasma levels of BIBX1382 of the treated mice
Type: in vivo, nude mice
Conditions: nude, mouse, plasma, oral; 100 mg/kg, 24 h after last compound administration on day 46; read-out: plasma level, mean
recorded metric: concentration at 24 h (nM)

>>> quantitative_result("CN1CCC(Nc2ncc3ncnc(Nc4ccc(F)c(Cl)c4)c3n2)CC1 [BIBX1382]")
591

* * *

Assay: Plasma levels of BIBX1382 of the treated mice
Assay type: in vivo, nude mice
Details: nude, mouse, plasma, oral; 50 mg/kg, 24 h after last compound administration on day 46; read-out: plasma level, mean
recorded metric: concentration at 24 h (nM)

>>> quantitative_result("CN1CCC(Nc2ncc3ncnc(Nc4ccc(F)c(Cl)c4)c3n2)CC1")
394

* * *

Assay: Plasma levels of BIBX1382 of the treated mice
Format: in vivo, nude mice
Conditions: nude, mouse, plasma, oral; 100 mg/kg, 2 h after last compound administration on day 46; read-out: plasma level, mean
Procedure: When tumors were established and had reached diameters of approximately 5 mm as measured with a calliper, mice were randomly distributed into groups of 10 animals so that each tumor size was equally represented in each treatment group. The time span between cell injection and randomisation/start of treatment was sixteen days. Starting ten days after randomisation, mice were treated once daily (at 24 hour intervals) with various doses of the test compound. […]
recorded metric: concentration at 2 h (µM)

>>> quantitative_result("CN1CCC(Nc2ncc3ncnc(Nc4ccc(F)c(Cl)c4)c3n2)CC1")
4.16
